Measured IC50 by item
# experimental.target: Gonadotropin-releasing hormone receptor (Homo sapiens, UniProt P30968, F309Q)
# Sequence (P30968 whole entry F309Q): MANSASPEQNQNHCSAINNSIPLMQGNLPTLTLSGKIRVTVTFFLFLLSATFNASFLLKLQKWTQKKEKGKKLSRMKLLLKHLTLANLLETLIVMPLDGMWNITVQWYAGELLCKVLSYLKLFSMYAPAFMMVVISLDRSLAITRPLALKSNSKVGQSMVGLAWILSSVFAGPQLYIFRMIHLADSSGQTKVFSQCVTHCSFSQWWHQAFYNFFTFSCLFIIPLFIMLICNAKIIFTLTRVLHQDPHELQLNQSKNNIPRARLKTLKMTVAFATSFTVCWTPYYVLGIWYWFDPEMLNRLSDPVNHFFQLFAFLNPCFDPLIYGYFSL
# test.method.notes: Displacement of [His5, D-Tyr6]GnRH from GnRHR F309Q mutant expressed in COS7 cells
Only the number, expressed in nM, is required.

[[record]]
smiles_notation = "CN(Cc1ccccc1)Cc1c(-c2ccc(NC(=O)NCc3ccccc3)cc2)sc2c1c(=O)n(-c1ccccc1)c(=O)n2Cc1c(F)cccc1F"
observed_measurement = 1200


Then there is this molecule:
// query Look up IC50 for this molecule: CN(Cc1ccccc1)Cc1c(-c2ccc(NC(=O)c3ccccc3)cc2)sc2c1c(=O)n(-c1ccccc1)c(=O)n2Cc1c(F)cccc1F
// result 220

---

# experimental.target: Gonadotropin-releasing hormone receptor (Homo sapiens, UniProt P30968, H306A)
# Sequence (P30968 whole entry H306A): as the sequence (P30968 whole entry F309Q) above, with H306A, Q309F counted along it
# test.method.notes: Displacement of [His5, D-Tyr6]GnRH from GnRHR H306A mutant expressed in COS7 cells
quantity.measured: IC50
In your response, the unit should come after the numeric value.

[[record]]
smiles_notation = "CN(Cc1ccccc1)Cc1c(-c2ccc(NC(=O)c3ccccc3)cc2)sc2c1c(=O)n(-c1ccccc1)c(=O)n2Cc1c(F)cccc1F"
experimental_target = "Gonadotropin-releasing hormone receptor (Homo sapiens, UniProt P30968, H306A)"
observed_measurement = "400 nM"

[[record]]
smiles_notation = "CN(Cc1ccccc1)Cc1c(-c2ccc(NC(=O)NCc3ccccc3)cc2)sc2c1c(=O)n(-c1ccccc1)c(=O)n2Cc1c(F)cccc1F"
experimental_target = "Gonadotropin-releasing hormone receptor (Homo sapiens, UniProt P30968, H306A)"
observed_measurement = "600 nM"

[[record]]
smiles_notation = "CN(CCc1ccccn1)Cc1c(-c2ccc([N+](=O)[O-])cc2)sc2c1c(=O)n(-c1ccccc1)c(=O)n2Cc1c(F)cccc1F"
experimental_target = "Gonadotropin-releasing hormone receptor (Homo sapiens, UniProt P30968, H306A)"
observed_measurement = "240 nM"


Then there is this compound:
// query Look up IC50 for this compound: CN(Cc1ccccc1)Cc1c(-c2ccc(N)cc2)sc2c1c(=O)n(-c1ccccc1)c(=O)n2Cc1c(F)cccc1F
// result 710 nM

---

# experimental.target: Gonadotropin-releasing hormone receptor (Homo sapiens, UniProt P30968, Y284L)
# Sequence (P30968 whole entry Y284L): as the sequence (P30968 whole entry F309Q) above, with Y284L, Q309F counted along it
# test.method.notes: Displacement of [His5, D-Tyr6]GnRH from GnRHR Y284L mutant expressed in COS7 cells
Threshold-based label: IC50 under 4 µM gives condition met, IC50 not under 4 µM gives condition not met.

For orientation, consider the following solved cases.
[[record]]
smiles_notation = "CN(Cc1ccccc1)Cc1c(-c2ccc([N+](=O)[O-])cc2)sc2c1c(=O)n(-c1ccccc1)c(=O)n2Cc1c(F)cccc1F"
group_label = "condition not met"

[[record]]
smiles_notation = "CC(=O)Nc1ccc(-c2sc3c(c2CN(C)Cc2ccccc2)c(=O)n(-c2ccccc2)c(=O)n3Cc2c(F)cccc2F)cc1"
group_label = "condition not met"

[[record]]
smiles_notation = "CN(Cc1ccccc1)Cc1c(-c2ccc(NC3=NCCN3)cc2)sc2c1c(=O)n(-c1ccccc1)c(=O)n2Cc1c(F)cccc1F"
group_label = "condition not met"


// query Does the reported IC50 of CN(Cc1ccccc1)Cc1c(-c2ccc(NC(=O)NCc3ccccc3)cc2)sc2c1c(=O)n(-c1ccccc1)c(=O)n2Cc1c(F)cccc1F stay below 4 µM?
// result condition not met

// query Does the reported IC50 of CN(Cc1ccccc1)Cc1c(-c2ccc(N)cc2)sc2c1c(=O)n(-c1ccccc1)c(=O)n2Cc1c(F)cccc1F stay below 4 µM?
// result condition not met

// query Does the reported IC50 of CN(Cc1ccccc1)Cc1c(-c2ccc(NC(=O)c3ccccc3)cc2)sc2c1c(=O)n(-c1ccccc1)c(=O)n2Cc1c(F)cccc1F stay below 4 µM?
// result condition met

// query Does the reported IC50 of CN(CCc1ccccn1)Cc1c(-c2ccc([N+](=O)[O-])cc2)sc2c1c(=O)n(-c1ccccc1)c(=O)n2Cc1c(F)cccc1F stay below 4 µM?
// result condition met

// query Does the reported IC50 of CN(CCc1ccccc1)Cc1c(-c2ccc([N+](=O)[O-])cc2)sc2c1c(=O)n(-c1ccccc1)c(=O)n2Cc1c(F)cccc1F stay below 4 µM?
// result condition not met
